# SYSTEM TESTED: tyrosinase (Agaricus bisporus)
# PROTOCOL NOTES: Enzyme-inhibitory kinetics (Michaelis-Menten fitting with inhibition models)
# Type: biochemical, mushroom
# CONDITIONS USED: simultaneous nonlinear fit; read-out: Ki (simulated inhibitory constant from kinetics fit)
pKi: −log10 of the molar value.

| COMPOUND | SYSTEM TESTED | pKi |
| --- | --- | --- |
| Cc1[nH]c2ccccc2c1CCNCc1ccc(/C=C/C(=O)NO)cc1 [Panobinostat] | tyrosinase (Agaricus bisporus) | 6.54 |

* * *

# SYSTEM TESTED: tyrosinase (Agaricus bisporus)
# PROTOCOL NOTES: Enzyme-inhibitory kinetics (Michaelis-Menten fitting with inhibition models)
# Type: biochemical, mushroom
# CONDITIONS USED: Ki for apo state (mixed model), first value, apo state

| SMILES INPUT | SYSTEM TESTED | Ki, µM |
| --- | --- | --- |
| CC(/C=C/C(=O)NO)=C\[C@@H](C)C(=O)c1ccc(N(C)C)cc1 | tyrosinase (Agaricus bisporus) | 4.5 |

* * *

# SYSTEM TESTED: tyrosinase (Agaricus bisporus, UniProt C7FF04)
# Sequence (C7FF04 1-392): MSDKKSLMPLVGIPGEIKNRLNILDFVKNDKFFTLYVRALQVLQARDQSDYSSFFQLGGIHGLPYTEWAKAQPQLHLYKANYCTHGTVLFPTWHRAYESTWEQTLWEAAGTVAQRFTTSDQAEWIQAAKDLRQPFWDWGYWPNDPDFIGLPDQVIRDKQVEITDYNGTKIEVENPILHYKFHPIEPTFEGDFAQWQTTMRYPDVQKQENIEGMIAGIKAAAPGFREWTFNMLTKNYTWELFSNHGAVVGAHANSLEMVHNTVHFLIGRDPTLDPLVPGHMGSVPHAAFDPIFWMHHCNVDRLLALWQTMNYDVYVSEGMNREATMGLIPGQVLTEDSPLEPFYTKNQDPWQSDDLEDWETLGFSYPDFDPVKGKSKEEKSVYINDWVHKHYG
# PROTOCOL NOTES: Enzyme-inhibitory kinetics (Michaelis-Menten fitting with inhibition models)
# Format: biochemical, mushroom
pKi: −log10 of the molar value.

| COMPOUND | SYSTEM TESTED | pKi |
| --- | --- | --- |
| O=C(NO)c1ccccc1 [Benzohydroxamic acid] | tyrosinase (Agaricus bisporus, UniProt C7FF04) | 6.89 |

* * *

# SYSTEM TESTED: tyrosinase (Agaricus bisporus, UniProt C7FF04)
# PROTOCOL NOTES: Enzyme-inhibitory kinetics (Michaelis-Menten fitting with inhibition models)
# Format: biochemical, mushroom
# CONDITIONS USED: model chosen by F-test on reduced χ2

| MOLECULE | Kinetics model (mode of inhibition) |
| --- | --- |
| O=C(NO)c1ccccc1 [Benzohydroxamic acid] | noncompetitive |
| CC(=O)NO [Acetohydroxamic acid] | noncompetitive |
| Cc1[nH]c2ccccc2c1CCNCc1ccc(/C=C/C(=O)NO)cc1 [Panobinostat] | competitive |
| O=C(CCCCCN1C(=O)c2cccc3cccc(c23)C1=O)NO [Scriptaid] | competitive |
| CC(/C=C/C(=O)NO)=C\[C@@H](C)C(=O)c1ccc(N(C)C)cc1 [Trichostatin A] | mixed |

* * *

# SYSTEM TESTED: UniProt:C7FF04
# PROTOCOL NOTES: Enzyme-activity assay with mushroom tyrosinase, L-DOPA substrate, dopachrome absorbance at 475 nm
# Type: biochemical
MEASURED METRIC: Ki (µM)

| COMPOUND | MEASURED METRIC | REPORTED RELATION | RESULT NUMBER |
| --- | --- | --- | --- |
| C/C=C1\NC(=O)[C@H]2CSSCC/C=C/[C@H](CC(=O)N[C@H](C(C)C)C(=O)N2)OC(=O)[C@H](C(C)C)NC1=O [Romidepsin] | Ki | > | 500 |
| O=C(NO)c1ccccc1 [Benzohydroxamic acid] | Ki | = | 0.007 |
| O=C(CCCCCN1C(=O)c2cccc3cccc(c23)C1=O)NO [Scriptaid] | Ki | = | 0.18 |
| CC(/C=C/C(=O)NO)=C\[C@@H](C)C(=O)c1ccc(N(C)C)cc1 [Trichostatin A] | Ki | = | 1 |

* * *

# SYSTEM TESTED: mushroom tyrosinase from Agaricus bisporus (Agaricus bisporus, UniProt C7FF04)
# PROTOCOL NOTES: Enzyme-activity assay with mushroom tyrosinase, L-DOPA substrate, dopachrome absorbance at 475 nm
# Assay type: biochemical
# CONDITIONS USED: read-out: Ki
pKi: −log10 of the molar value.

| MOLECULE | REPORTED RELATION | pKi |
| --- | --- | --- |
| O=C(CCCCCCC(=O)NO)NO [Suberohydroxamic acid] | = | 6.00 |
| O=c1cccccc1O | = | 7.37 |
| CCCC(=O)NO [Butyrylhydroxamic acid] | = | 4.49 |
| CCCC(CCC)C(=O)O | < | 3.30 |
| Cc1[nH]c2ccccc2c1CCNCc1ccc(/C=C/C(=O)NO)cc1 | = | 7.40 |

* * *

# SYSTEM TESTED: mushroom tyrosinase (Agaricus bisporus, UniProt C7FF04)
# PROTOCOL NOTES: Differential scanning fluorimetry (DSF) with SYPRO Orange
# Type: binding
# CONDITIONS USED: 500 μM inhibitor; mean ± SD of three experiments; DMSO control 49.16
Below, each of the molecules is paired with its reported Tm value.

| MOLECULE | Tm [°C] |
| --- | --- |
| CC(/C=C/C(=O)NO)=C\[C@@H](C)C(=O)c1ccc(N(C)C)cc1 | 46.55 |
| O=C(CCCCCN1C(=O)c2cccc3cccc(c23)C1=O)NO | 47.31 |
| O=C(NO)c1ccccc1 [Benzohydroxamic acid] | 47.15 |
| Cc1[nH]c2ccccc2c1CCNCc1ccc(/C=C/C(=O)NO)cc1 | 46.72 |
